Cited source for all entries: the supplement of paper PMC6555819

# System: PPARa:RXRa (NR concentration 270 nM, RXRa partner concentration 90 nM)
# assayExplanation: PBM binding z-score (relative to random genomic background probes); higher = stronger binding; sequences stand for … in GC…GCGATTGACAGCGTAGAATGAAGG
# PBM binding z-score listing for each entry below
endpointName: PBM binding z-score

residueCodes | reportedResult
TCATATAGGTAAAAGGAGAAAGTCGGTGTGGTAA | 2.06
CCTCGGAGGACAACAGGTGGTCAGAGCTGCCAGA | -0.623
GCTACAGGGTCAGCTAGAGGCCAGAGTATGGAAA | 4.6
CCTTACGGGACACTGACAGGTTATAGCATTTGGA | -0.0851
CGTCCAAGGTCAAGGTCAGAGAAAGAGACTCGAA | 5.99
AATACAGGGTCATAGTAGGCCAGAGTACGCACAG | 5.82
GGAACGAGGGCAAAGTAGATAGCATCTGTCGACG | 1.98
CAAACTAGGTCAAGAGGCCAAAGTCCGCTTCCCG | 4.7
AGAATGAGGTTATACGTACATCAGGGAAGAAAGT | 3.24
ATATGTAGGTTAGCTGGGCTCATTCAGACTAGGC | 1.98
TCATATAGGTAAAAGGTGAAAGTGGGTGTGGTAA | 5.49
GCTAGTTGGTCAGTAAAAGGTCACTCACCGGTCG | 3.87

----------
# System: LXRa homodimer (NR concentration 270 nM)
# assayExplanation: PBM binding z-score (relative to random genomic background probes); higher = stronger binding; sequences stand for … in GC…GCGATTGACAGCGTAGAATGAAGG

residueCodes | PBM binding z-score
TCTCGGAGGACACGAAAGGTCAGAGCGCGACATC | 2.95
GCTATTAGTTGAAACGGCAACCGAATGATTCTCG | -0.23
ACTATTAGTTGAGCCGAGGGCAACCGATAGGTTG | -0.117
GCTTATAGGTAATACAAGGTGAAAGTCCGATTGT | 0.251
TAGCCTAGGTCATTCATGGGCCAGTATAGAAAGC | 0.512
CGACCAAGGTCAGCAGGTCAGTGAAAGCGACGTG | -0.15
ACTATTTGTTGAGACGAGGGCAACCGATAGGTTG | 0.28
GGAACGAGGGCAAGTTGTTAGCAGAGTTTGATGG | -0.221
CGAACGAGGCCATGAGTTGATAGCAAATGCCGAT | -0.636
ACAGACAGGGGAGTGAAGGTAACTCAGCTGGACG | -0.294
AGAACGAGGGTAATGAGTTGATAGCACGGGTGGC | -0.536
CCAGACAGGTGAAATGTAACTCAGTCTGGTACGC | -0.367

----------
# Tested on: LXRb:RXRa (NR concentration 270 nM, RXRa partner concentration 90 nM)
# assayExplanation: PBM binding z-score (relative to random genomic background probes); higher = stronger binding; sequences stand for … in GC…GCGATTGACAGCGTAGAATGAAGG
Everything with PBM binding z-score lower than 1 is F; everything else, including exactly 1, is T.

residueCodes | classAssignment
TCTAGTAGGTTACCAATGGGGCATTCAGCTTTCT | T
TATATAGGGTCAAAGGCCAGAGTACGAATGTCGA | T
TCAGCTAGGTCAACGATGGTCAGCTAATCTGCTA | T
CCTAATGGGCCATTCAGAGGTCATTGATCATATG | T
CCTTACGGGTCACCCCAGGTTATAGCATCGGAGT | T
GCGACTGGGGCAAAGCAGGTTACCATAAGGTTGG | F
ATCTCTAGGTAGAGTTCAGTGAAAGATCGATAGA | T
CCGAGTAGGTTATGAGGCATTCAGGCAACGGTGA | F
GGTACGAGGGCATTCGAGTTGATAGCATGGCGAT | F
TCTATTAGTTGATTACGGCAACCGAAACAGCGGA | F
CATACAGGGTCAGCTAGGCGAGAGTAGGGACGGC | T
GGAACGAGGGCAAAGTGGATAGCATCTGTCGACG | F
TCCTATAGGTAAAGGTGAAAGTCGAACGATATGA | T
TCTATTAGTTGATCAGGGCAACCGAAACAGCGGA | F
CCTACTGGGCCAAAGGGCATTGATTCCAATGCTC | F
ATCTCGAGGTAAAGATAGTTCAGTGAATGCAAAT | T
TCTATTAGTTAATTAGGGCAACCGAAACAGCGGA | F
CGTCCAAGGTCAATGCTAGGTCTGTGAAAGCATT | T
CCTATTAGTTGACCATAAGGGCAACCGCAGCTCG | F
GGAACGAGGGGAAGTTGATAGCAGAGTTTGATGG | F
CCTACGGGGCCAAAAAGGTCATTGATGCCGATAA | T
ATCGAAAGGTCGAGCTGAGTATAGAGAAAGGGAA | T
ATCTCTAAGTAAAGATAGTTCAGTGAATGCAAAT | F
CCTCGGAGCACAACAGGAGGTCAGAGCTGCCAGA | T
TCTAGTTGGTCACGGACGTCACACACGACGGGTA | F
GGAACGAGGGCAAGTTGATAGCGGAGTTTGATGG | F

----------
# Tested on: LXRa:RXRa (NR concentration 270 nM, RXRa partner concentration 90 nM)
# assayExplanation: PBM binding z-score (relative to random genomic background probes); higher = stronger binding; sequences stand for … in GC…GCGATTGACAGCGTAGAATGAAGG

residueCodes | assayedTarget | PBM binding z-score
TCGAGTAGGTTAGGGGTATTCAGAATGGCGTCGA | LXRa:RXRa (NR concentration 270 nM, RXRa partner concentration 90 nM) | 0.298
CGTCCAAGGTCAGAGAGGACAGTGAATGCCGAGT | LXRa:RXRa (NR concentration 270 nM, RXRa partner concentration 90 nM) | 3.42
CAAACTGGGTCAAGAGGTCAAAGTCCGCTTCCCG | LXRa:RXRa (NR concentration 270 nM, RXRa partner concentration 90 nM) | 6.26
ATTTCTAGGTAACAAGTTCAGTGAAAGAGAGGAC | LXRa:RXRa (NR concentration 270 nM, RXRa partner concentration 90 nM) | 1.39
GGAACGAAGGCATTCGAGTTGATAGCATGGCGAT | LXRa:RXRa (NR concentration 270 nM, RXRa partner concentration 90 nM) | -0.66
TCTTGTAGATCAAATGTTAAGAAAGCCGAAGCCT | LXRa:RXRa (NR concentration 270 nM, RXRa partner concentration 90 nM) | 0.517
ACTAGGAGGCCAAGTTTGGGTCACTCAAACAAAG | LXRa:RXRa (NR concentration 270 nM, RXRa partner concentration 90 nM) | 0.308
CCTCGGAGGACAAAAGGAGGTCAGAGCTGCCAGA | LXRa:RXRa (NR concentration 270 nM, RXRa partner concentration 90 nM) | 2.12
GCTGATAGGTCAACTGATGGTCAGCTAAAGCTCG | LXRa:RXRa (NR concentration 270 nM, RXRa partner concentration 90 nM) | 4.76
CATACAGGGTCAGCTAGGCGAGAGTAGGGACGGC | LXRa:RXRa (NR concentration 270 nM, RXRa partner concentration 90 nM) | 2.84
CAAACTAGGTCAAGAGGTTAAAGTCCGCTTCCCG | LXRa:RXRa (NR concentration 270 nM, RXRa partner concentration 90 nM) | 4.32
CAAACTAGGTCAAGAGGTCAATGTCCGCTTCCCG | LXRa:RXRa (NR concentration 270 nM, RXRa partner concentration 90 nM) | 6.19
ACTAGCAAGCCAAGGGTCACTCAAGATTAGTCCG | LXRa:RXRa (NR concentration 270 nM, RXRa partner concentration 90 nM) | 2.75
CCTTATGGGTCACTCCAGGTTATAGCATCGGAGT | LXRa:RXRa (NR concentration 270 nM, RXRa partner concentration 90 nM) | 7.24
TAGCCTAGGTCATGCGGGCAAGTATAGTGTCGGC | LXRa:RXRa (NR concentration 270 nM, RXRa partner concentration 90 nM) | 3.3
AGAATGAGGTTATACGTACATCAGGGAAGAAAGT | LXRa:RXRa (NR concentration 270 nM, RXRa partner concentration 90 nM) | 2.05
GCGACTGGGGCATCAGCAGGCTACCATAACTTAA | LXRa:RXRa (NR concentration 270 nM, RXRa partner concentration 90 nM) | -0.723
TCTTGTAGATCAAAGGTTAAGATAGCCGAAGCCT | LXRa:RXRa (NR concentration 270 nM, RXRa partner concentration 90 nM) | 2.11
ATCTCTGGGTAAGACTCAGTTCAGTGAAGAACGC | LXRa:RXRa (NR concentration 270 nM, RXRa partner concentration 90 nM) | 0.209
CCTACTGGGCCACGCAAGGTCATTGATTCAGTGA | LXRa:RXRa (NR concentration 270 nM, RXRa partner concentration 90 nM) | 3.83
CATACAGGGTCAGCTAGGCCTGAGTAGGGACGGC | LXRa:RXRa (NR concentration 270 nM, RXRa partner concentration 90 nM) | 2.64
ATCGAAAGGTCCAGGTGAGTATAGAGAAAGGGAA | LXRa:RXRa (NR concentration 270 nM, RXRa partner concentration 90 nM) | 0.816
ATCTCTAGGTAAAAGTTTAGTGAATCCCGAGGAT | LXRa:RXRa (NR concentration 270 nM, RXRa partner concentration 90 nM) | 0.276
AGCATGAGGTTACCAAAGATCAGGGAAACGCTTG | LXRa:RXRa (NR concentration 270 nM, RXRa partner concentration 90 nM) | 6.48
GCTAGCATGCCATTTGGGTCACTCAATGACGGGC | LXRa:RXRa (NR concentration 270 nM, RXRa partner concentration 90 nM) | -0.0732
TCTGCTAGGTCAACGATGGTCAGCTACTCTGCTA | LXRa:RXRa (NR concentration 270 nM, RXRa partner concentration 90 nM) | 2.86
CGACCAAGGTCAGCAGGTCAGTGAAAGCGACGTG | LXRa:RXRa (NR concentration 270 nM, RXRa partner concentration 90 nM) | 3.43
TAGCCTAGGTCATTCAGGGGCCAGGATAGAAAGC | LXRa:RXRa (NR concentration 270 nM, RXRa partner concentration 90 nM) | 3.81
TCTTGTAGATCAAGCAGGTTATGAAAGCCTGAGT | LXRa:RXRa (NR concentration 270 nM, RXRa partner concentration 90 nM) | 0.219
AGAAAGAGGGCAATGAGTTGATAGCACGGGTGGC | LXRa:RXRa (NR concentration 270 nM, RXRa partner concentration 90 nM) | 0.892
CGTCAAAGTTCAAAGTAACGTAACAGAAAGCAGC | LXRa:RXRa (NR concentration 270 nM, RXRa partner concentration 90 nM) | 6.57
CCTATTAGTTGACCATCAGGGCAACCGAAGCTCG | LXRa:RXRa (NR concentration 270 nM, RXRa partner concentration 90 nM) | 0.292
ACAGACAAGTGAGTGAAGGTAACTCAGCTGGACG | LXRa:RXRa (NR concentration 270 nM, RXRa partner concentration 90 nM) | -0.258
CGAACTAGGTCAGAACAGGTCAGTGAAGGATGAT | LXRa:RXRa (NR concentration 270 nM, RXRa partner concentration 90 nM) | 2.65
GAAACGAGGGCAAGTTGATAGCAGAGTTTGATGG | LXRa:RXRa (NR concentration 270 nM, RXRa partner concentration 90 nM) | 0.537
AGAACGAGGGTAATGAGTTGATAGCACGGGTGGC | LXRa:RXRa (NR concentration 270 nM, RXRa partner concentration 90 nM) | -0.272
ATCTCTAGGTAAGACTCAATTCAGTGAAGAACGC | LXRa:RXRa (NR concentration 270 nM, RXRa partner concentration 90 nM) | 0.482
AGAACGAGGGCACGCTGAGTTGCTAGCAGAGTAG | LXRa:RXRa (NR concentration 270 nM, RXRa partner concentration 90 nM) | 0.348
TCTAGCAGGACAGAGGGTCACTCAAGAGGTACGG | LXRa:RXRa (NR concentration 270 nM, RXRa partner concentration 90 nM) | 1.11
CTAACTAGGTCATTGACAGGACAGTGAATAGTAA | LXRa:RXRa (NR concentration 270 nM, RXRa partner concentration 90 nM) | 3.33
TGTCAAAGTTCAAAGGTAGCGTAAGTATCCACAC | LXRa:RXRa (NR concentration 270 nM, RXRa partner concentration 90 nM) | 6.04
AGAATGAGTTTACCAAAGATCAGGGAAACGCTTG | LXRa:RXRa (NR concentration 270 nM, RXRa partner concentration 90 nM) | 2.97
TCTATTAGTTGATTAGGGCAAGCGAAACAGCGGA | LXRa:RXRa (NR concentration 270 nM, RXRa partner concentration 90 nM) | 0.347
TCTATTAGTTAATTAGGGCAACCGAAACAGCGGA | LXRa:RXRa (NR concentration 270 nM, RXRa partner concentration 90 nM) | 0.526
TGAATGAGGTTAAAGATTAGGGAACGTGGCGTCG | LXRa:RXRa (NR concentration 270 nM, RXRa partner concentration 90 nM) | 2.05
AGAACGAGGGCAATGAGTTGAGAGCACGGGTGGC | LXRa:RXRa (NR concentration 270 nM, RXRa partner concentration 90 nM) | -0.0458
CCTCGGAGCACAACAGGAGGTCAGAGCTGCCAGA | LXRa:RXRa (NR concentration 270 nM, RXRa partner concentration 90 nM) | 1.54
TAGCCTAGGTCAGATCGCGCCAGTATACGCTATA | LXRa:RXRa (NR concentration 270 nM, RXRa partner concentration 90 nM) | 0.937
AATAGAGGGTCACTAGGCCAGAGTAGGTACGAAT | LXRa:RXRa (NR concentration 270 nM, RXRa partner concentration 90 nM) | 3.5
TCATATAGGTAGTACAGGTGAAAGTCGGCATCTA | LXRa:RXRa (NR concentration 270 nM, RXRa partner concentration 90 nM) | 1.01
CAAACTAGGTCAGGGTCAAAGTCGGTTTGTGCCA | LXRa:RXRa (NR concentration 270 nM, RXRa partner concentration 90 nM) | 4.32
